Each recorded value in this set is attributed to patent US4265906A.

Listed here: items and their measured LC50 at 48 h.
# PROTOCOL: Toxicity to carps (Test Example 12)
# Type: in vivo
# CONDITION PARAMETERS: carp, dechlorinated tap water, read-out: TLm48

CC1(C)[C@H](C=C(Cl)Cl)[C@H]1C(=O)OC(C#N)c1cccc(Oc2ccc(Br)cc2)c1 (relative stereo) | > 10 µg/mL

Asked: Identify LC50 at 48 h associated with the molecule CC1(C)C(C=C(Cl)Cl)C1C(=O)OC(C#N)c1cccc(Oc2ccccc2)c1 (racemic) [Reference compound (D)]
Given back: ≤ 0.01 µg/mL

====

# PROTOCOL: Fish toxicity of dust, killifishes (Test Example 11)
# Assay type: in vivo
# CONDITION PARAMETERS: dechlorinated tap water, dust of Formulation Example 2, Oryzias latipes, read-out: TLm48
PARAMETER MEASURED: LC50 at 48 h

Asked: Identify LC50 at 48 h associated with the compound CC1(C)[C@H](C=C(Cl)Cl)[C@H]1C(=O)OC(C#N)c1cccc(Oc2ccc(Br)cc2)c1 (relative stereo)
Given back: > 10 µg/mL
